TGT: monkey GPC3 on HEK293T-monkey GPC3 cells (monkey)
ASSAY COMMENT: FACS on HEK293T-monkey GPC3 cells
# EC50 annotations
A number alone suffices; assume nM.

>>> reported_result("hAb005LH2L1a (antibody, human IgG1, V domains shown) VH: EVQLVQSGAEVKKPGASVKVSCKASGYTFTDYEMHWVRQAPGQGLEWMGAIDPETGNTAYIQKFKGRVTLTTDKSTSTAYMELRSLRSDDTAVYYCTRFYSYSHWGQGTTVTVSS VL: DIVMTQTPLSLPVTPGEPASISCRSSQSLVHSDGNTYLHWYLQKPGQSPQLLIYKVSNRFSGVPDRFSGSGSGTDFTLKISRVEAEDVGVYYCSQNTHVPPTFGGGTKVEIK")
32.8

# input binder: hAb001H1L1 (antibody, human IgG1, V domains shown) VH: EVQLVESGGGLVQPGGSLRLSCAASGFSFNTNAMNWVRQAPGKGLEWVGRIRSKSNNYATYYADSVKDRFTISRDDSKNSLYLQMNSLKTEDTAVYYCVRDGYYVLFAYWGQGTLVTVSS VL: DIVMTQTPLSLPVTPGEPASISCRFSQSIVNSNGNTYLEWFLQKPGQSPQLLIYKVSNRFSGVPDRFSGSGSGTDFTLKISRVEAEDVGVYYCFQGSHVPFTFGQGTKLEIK ; wanted: its EC50 1.33

# input binder: hAb007LH3L1 (antibody, human IgG1, V domains shown) VH: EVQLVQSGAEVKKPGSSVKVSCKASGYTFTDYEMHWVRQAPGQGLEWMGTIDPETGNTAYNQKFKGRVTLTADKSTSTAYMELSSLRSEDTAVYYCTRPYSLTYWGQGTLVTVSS VL: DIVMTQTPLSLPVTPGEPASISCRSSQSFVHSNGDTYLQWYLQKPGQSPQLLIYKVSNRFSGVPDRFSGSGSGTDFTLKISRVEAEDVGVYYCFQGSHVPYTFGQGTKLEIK ; wanted: its EC50 13.6
